Data provenance is PubChem BioAssay AID1645868.

# system.under.test: OTU domain-containing protein 3 (Homo sapiens) (UniProt Q5T2D3)
# Sequence (Q5T2D3 whole entry, looked up, the tested form may be a part): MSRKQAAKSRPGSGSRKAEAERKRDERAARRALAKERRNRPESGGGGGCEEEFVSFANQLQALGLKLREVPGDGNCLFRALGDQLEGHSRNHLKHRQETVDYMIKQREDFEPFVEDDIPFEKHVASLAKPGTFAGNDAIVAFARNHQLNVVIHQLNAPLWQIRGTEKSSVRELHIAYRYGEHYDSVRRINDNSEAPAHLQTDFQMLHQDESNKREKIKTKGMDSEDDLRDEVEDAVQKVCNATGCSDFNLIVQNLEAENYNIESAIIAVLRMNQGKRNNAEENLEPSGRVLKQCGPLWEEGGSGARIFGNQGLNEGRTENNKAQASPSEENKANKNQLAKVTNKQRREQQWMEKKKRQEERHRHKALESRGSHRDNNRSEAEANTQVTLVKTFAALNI
# experiment.notes: Validation of screening hits, potency titration, in vitro enzymatic, OTU domain-containing protein 3 DUB inhibitors (AID 1645868)
# particulars: purified OTUD3, ubiquitin-rhodamine cleavage fluorescence, 2 h
Active and inactive are the calls of the source.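 The calls were made as follows: active = maximal percent inhibition of the deubiquitinase OTUD3 of at least 30% across the tested doses; inactive = the rest.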
API: response.call in active, inactive

[
  {
    "molecule": "O=C(Nc1ccc(-c2cn3ccccc3n2)cc1)C1C=C2C=C(Br)C=CC2OC1=O (stereo not given)",
    "label": "inactive"
  },
  {
    "molecule": "CCOc1ccc(Nc2cc(C(=O)NCCc3ccccc3)c3ccccc3n2)cc1",
    "label": "active"
  },
  {
    "molecule": "N#Cc1c(Cl)cccc1Oc1ccc(S(=O)(=O)N2CCC(O)CC2)cc1",
    "label": "active"
  }
]

Task: Short answer needed: outcome of this test for O=C1Nc2c(Cl)cc(Cl)cc2C1(O)c1sc(NC2CCCCC2)nc1-c1ccccc1 (stereo not given) ?
Output: active

Task: Short answer needed: outcome of this test for "O=C(NCc1ccc2c(c1)OCO2)c1cc(-c2cc(Cl)ccc2O)n[nH]1" ?
Output: active

Task: Short answer needed: outcome of this test for "Cc1cccc(N2CCN(C(=O)c3nnn(-c4ccc(F)cc4)n3)CC2)c1" ?
Output: inactive

Task: Short answer needed: outcome of this test for "Cc1ccc(CSC2=NS(=O)(=O)c3ccccc3N2)cc1" ?
Output: inactive

---

# system.under.test: OTU domain-containing protein 3 (Homo sapiens)
# experiment.notes: Validation of screening hits, potency titration, in vitro enzymatic, OTU domain-containing protein 3 DUB inhibitors (AID 1645868)
# particulars: purified OTUD3, ubiquitin-rhodamine cleavage fluorescence, 2 h
Activity calls are given as the source filed them.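 Rule for the calls: active = maximal percent inhibition of the deubiquitinase OTUD3 of at least 30% across the tested doses; inactive = the rest.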
API: response.call in 1 (yes) = active, 0 (no) = inactive

Study these solved cases before continuing.
[
  {
    "compound": "CCCNC(=O)c1ccn(-c2ccc3ccc(-c4cnn(C)c4)cn23)n1",
    "label": "0 (no)"
  },
  {
    "compound": "O=C(c1cccnc1)N1CCC2(CC1)CC1(CO2)Nc2ccccc2-n2cccc21 (stereo not given)",
    "label": "0 (no)"
  },
  {
    "compound": "COc1ccc2ncc3c(-c4ccc(C)cc4)nn(-c4ccc(F)cc4)c3c2c1",
    "label": "0 (no)"
  },
  {
    "compound": "COc1ccc(OC)c2c(C)cc(N3CCN(S(=O)(=O)c4ccc5c(c4)CCCN5S(C)(=O)=O)CC3)nc12",
    "label": "1 (yes)"
  },
  {
    "compound": "O=C(Nc1ccc(N2CCOCC2)cc1)c1ccc(-c2ccc(N3CCCC3)nn2)cc1",
    "label": "0 (no)"
  },
  {
    "compound": "Cc1cccc(C(=O)Nc2ccc3c(c2)nc(CSc2nccc(C)n2)n3C)c1",
    "label": "0 (no)"
  },
  {
    "compound": "Cc1ccc(C)c(NC(=O)CCc2nc(CSc3nc4ccccc4o3)no2)c1",
    "label": "1 (yes)"
  },
  {
    "compound": "O=C(Cn1c(=O)n(Cc2ccccc2)c(=O)c2ncccc21)NCc1ccccc1Cl",
    "label": "0 (no)"
  },
  {
    "compound": "CC(C)=CCC/C(C)=C/Cc1c(O)cc2c(c1O)C(=O)OC2",
    "label": "1 (yes)"
  }
]

Task: Short answer needed: outcome of this test for "Cc1cccc(C(=O)N2CCc3cc(-c4nc(NC(=O)CN5CCc6ccccc6C5)sc4C)ccc32)c1" ?
Output: 0 (no)
